Numbers sourced from patent US6274715A.

tested on: STREPTOCOCCUS PYOGENES PIU 2548; test: In vitro antibacterial activity, MIC, BHI agar dilution; assay type: cell-based; conditions: S. pyogenes PIU 2548, unit assumed
Listed next: entries and their corresponding MIC.
Dear colleague, please return just the value in µg/mL, with no unit written.

>  <Compound>
CC[C@H]1OC(=O)[C@H](C)C(=O)[C@H](C)[C@@H](O[C@@H]2O[C@H](C)C[C@H](N(C)C)[C@H]2O)[C@](C)(OC)C[C@@H](C)C2=NCC(COC(=O)c3ccc(Cl)cc3)N3C(=O)O[C@@]1(C)[C@H]3[C@H]2C (stereo partly drawn) [Example 141]

>  <Test System>
STREPTOCOCCUS PYOGENES PIU 2548

>  <Value Units>
µg/mL

>  <MIC>
0.2

$$$$

### Prompt Determine from records and report MIC for CCC1OC(=O)C(C)C(=O)C(C)C(OC2OC(C)CC(N(C)C)C2O)C(C)(OC)CC(C)C2=NC(COCc3ccc(N(C)C)cc3)CN3C(=O)OC1(C)C3C2C (stereo not drawn) [Example 76]
### Response 0.39

### Prompt Determine from records and report MIC for CC[C@H]1OC(=O)[C@H](C)C(=O)[C@H](C)[C@@H](O[C@@H]2O[C@H](C)C[C@H](N(C)C)[C@H]2O)[C@](C)(OC)C[C@@H](C)C2=NCC(COC(=O)c3cccc4[nH]ccc34)N3C(=O)O[C@@]1(C)[C@H]3[C@H]2C (stereo partly drawn) [Example 144]
### Response 0.39
